system.under.test: activated hepsin (#4776-SE-010, R&D Systems) (UniProt P05981 45-417, limits assumed)
Sequence (P05981 45-417 limits assumed): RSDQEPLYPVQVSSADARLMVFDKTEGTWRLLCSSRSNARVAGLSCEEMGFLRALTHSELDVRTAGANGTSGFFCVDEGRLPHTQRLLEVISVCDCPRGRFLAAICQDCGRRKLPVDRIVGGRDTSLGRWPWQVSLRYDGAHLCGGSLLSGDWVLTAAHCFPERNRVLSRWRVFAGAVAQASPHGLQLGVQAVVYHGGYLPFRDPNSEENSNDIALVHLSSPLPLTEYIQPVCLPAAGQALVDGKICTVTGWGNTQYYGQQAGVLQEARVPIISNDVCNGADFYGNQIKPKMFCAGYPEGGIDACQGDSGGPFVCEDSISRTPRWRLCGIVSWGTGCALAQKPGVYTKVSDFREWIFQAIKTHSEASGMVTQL
assay.text: cell-based or functional assay
Positions of bridges follow the written chain, without caps; N, C: chain ends. Non-standard residues stand in square brackets, D forms with d. No end group written: not given here. kbt = C-terminal Arg ketobenzothiazole; kt = C-terminal Arg ketothiazole
For each of the binders below, state its Hepsin IC50.
Don't forget the unit after the value.

Data request: // query Hepsin IC50 value for entry Ac-KQLR-kbt [Ac-KQLR-kbt, ZFH7006]
Data returned: 0.17 nM

Data request: // query Hepsin IC50 value for entry Ac-DMKR-kbt (lactam 1-3; not fully specified; printed as Cyclo(DMK)R-kbt; also: N-terminal acetyl described as 6-acetamido) [Cyclo(DMK)R-kbt, VD3173]
Data returned: 5.9 nM

Data request: // query Hepsin IC50 value for entry Ac-WLFR-kbt [Ac-WLFR-kbt, ZFH7064]
Data returned: 0.79 nM

Data request: // query Hepsin IC50 value for entry Leu-Leu-Arg-{kbt-Val-NH2} (also: N-terminal cap inconsistent in filing (H or Ac)) [H-LLR-kbt V-amide ZFH7182]
Data returned: 0.01 nM

Data request: // query Hepsin IC50 value for entry Ac-DLKR-kbt (lactam 1-3; not fully specified; printed as Cyclo(DLK)R-kbt; also: N-terminal acetyl described as 6-acetamido) [Cyclo(DLK)R-kbt, VD2173]
Data returned: 10 nM

Data request: // query Hepsin IC50 value for entry Ac-DQKR-kbt (lactam 1-3; also: N-terminal acetyl described as 6-acetamido) [Cyclo(DQK)R-kbt, VD3152]
Data returned: 22 nM

Data request: // query Hepsin IC50 value for entry Ac-[dW]-Phe-Arg-kbt [Ac-dWFR-kbt, PK-1-89A1]
Data returned: 100 nM

Data request: // query Hepsin IC50 value for entry Ac-Leu-Leu-Arg-kt [Ac-LLR-kt, ZFH6201]
Data returned: 4.6 nM

Data request: // query Hepsin IC50 value for entry Ac-SKLR-{kbt-Val-NH2} [Ac-SKLR kbt V-amide, ZFH7116]
Data returned: 0.5 nM
